- System: OVCAR-3 ovarian
- procedure details: NCI-60 one-dose screen, 48 h (100 = growth as untreated, 0 = no growth, -100 = all killed)
- particulars: 10 µM unless noted
This is part of a sample that, as a whole, favours compounds with a hit. Of some 83,000 tested, about 20% had one in any assay.
Values of growth greater than or equal to -20% map to true (1); values below map to false (0).

Answered examples (5):
compound	group
COc1cc([C@@H]2c3cc4c(cc3[C@H](OC(C)=O)[C@H]3COC(=O)[C@@H]23)OCO4)cc(OC)c1OC	true (1)
Cn1cc(-c2csc(-c3cn(CCCCN4CCCCC4)c4ccccc34)n2)c2cccnc21	false (0)
CC(C)COC(C[N+](=O)[O-])C(Cl)(Cl)Cl (configuration not stated)	true (1)
COC(=O)[C@@H](C)C[C@H](Cc1ccccc1)NC(=O)c1csc([C@@H](C[C@H](C(C)C)N(C)C(=O)C2(NC(=O)[C@H]3CCCCN3C)CC2)OC(C)=O)n1	true (1)
CC[S][Hg][Cl]	true (1)

Can COC(=O)[C@@H](C)C[C@H](Cc1ccccc1)NC(=O)c1csc([C@@H](C[C@H](C(C)C)N(C)C(=O)[C@@H](NC(=O)[C@H]2CCCCN2C)C(C)C)OC(C)=O)n1 be said to have growth at or above -20%?
false (0)

Does the reported growth for COC(=O)[C@@H](C)C[C@H](Cc1ccc2ccccc2c1)NC(=O)c1csc([C@@H](C[C@H](C(C)C)N(C)C(=O)[C@@H](NC(=O)[C@H]2CCCCN2C)C(C)C)OC(C)=O)n1 fall at or above the -20% mark?
true (1)

----------
- Test system: HCT-116 colon
- procedure details: NCI-60 one-dose screen, 48 h (100 = growth as untreated, 0 = no growth, -100 = all killed)
- particulars: 10 µM unless noted
This is part of a sample that, as a whole, favours compounds with a hit. Of some 83,000 tested, about 20% had one in any assay.
Hi! Just check whether growth is below 90%. Below gives condition met, equal or above gives condition not met.

In [3]: df
Out[3]:
                                   compound          group
0  O=C(CC1(O)C(=O)Nc2ccccc21)c1ccc(C(=O)NCC2CCC3(CC2)OOC2(CCCCC2)OO3)cc1 (stereo unspecified)  condition met
1  COc1ccc(/C=C/c2cc(OC)c(OC)c(OC)c2)cc1NC(=O)/C=C/c1ccc(F)cc1  condition met
2  CC(=O)[C@H]1CC[C@H]2[C@@H]3CC[C@H]4C[C@H](N)CC[C@]4(C)[C@H]3CC[C@]12C  condition met

Just wondering, is growth of O=C(O)CNC(=O)C(Cl)(Cl)Cl below 90%?
condition not met

Hi there! Is growth for Fc1ccc(C2=CCNCC2)cc1 below 90%, do you know?
condition not met

----------
- Tested on: MALME-3M melanoma
- procedure details: NCI-60 one-dose screen, 48 h (100 = growth as untreated, 0 = no growth, -100 = all killed)
- particulars: 10 µM unless noted
- Protocol: Cells are grown in 96 well plates and exposed to the test compound for 48 hours. Compounds are tested at a single concentration, which is 10^-5 M for most compounds. The reported endpoint is percent growth (GI% or GIPRCNT), where numbers from 0 - 100% represent growth inhibition, and numbers from -100% - 0 represent cell death. For example, a value of 40 represents 60% growth inhibition. A value of 0 means no net growth occurred over the course of the experiment. […]
This is part of a sample that, as a whole, favours compounds with a hit. Of some 83,000 tested, about 20% had one in any assay.
Rule: growth below 50% gives Yes. Equal to or above 50% gives No.

Solved entries (count: 3):
molecule	group
C/C(=C\c1ccn(-c2ccc(N)c(F)c2)n1)[C@@H]1C[C@@H]2O[C@]2(C)CCC[C@H](C)[C@H](O)[C@@H](C)C(=O)C(C)(C)[C@@H](O)CC(=O)O1	Yes
CC(=O)OCc1cc[c]([Hg][Cl])o1	Yes
COc1cc(/C=C\c2cc(OC)c(OC)c(OC)c2)cc(NS(=O)(=O)c2cccc(Cl)c2)c1OC	No

Pending molecule:
Is the reported growth for Cc1cnc(/C=C/C(=O)O)cc1-c1cc2c(cc1C)C(C)(C)CCC2(C)C strictly below 50%?
Yes

Provenance of the data: PubChem BioAssay (NCI)
